# System: human PBMCs
# PROCEDURE SUMMARY: Human PBMC cytokine response assay (IFN-γ and IFN-α in cell-free medium by ELISA), with or without cPLGA
# Type: cell-based
# CONDITION SET: Example 58; 4 ug/ml; donor 2
Strand notation (5' to 3'): a small letter for the sugar, then the base; units joined by * are phosphorothioate-linked, units joined directly phosphodiester-linked; [ ] holds rarer units or linkages, { } end groups; capitals alone tell only the bases. d = 2'-deoxy (DNA)
The reader will find reported IFN-α values listed item by item below.
READOUT KIND: IFN-α (pg/mL)

1. (5′-TCGAACGTTCGA-3′ (SEQ ID NO: 155)-HEG)2-glycerol-HEG-3′-AGCTTGCAAGCT-5′ (SEQ ID NO: 155) (DNA, all phosphorothioate, methylation of C not given here; Three DNA copies joined by HEG spacers and glycerol branching, one copy inverted) [Compound C-174] ... 7845
2. 5′-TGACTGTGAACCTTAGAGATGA-3′ (SEQ ID NO: 3) (dT*dG*dA*dC*dT*dG*dT*dG*dA*dA*dC*dC*dT*dT*dA*dG*dA*dG*dA*dT*dG*dA) [Compound P-7, negative control, reference compound] ... 52
3. (5′-TCGAACGTTCGA-3′ (SEQ ID NO: 155)-HEG)2-glycerol-HEG-5′-TCGAACGTTCGA-3′ (SEQ ID NO: 155) (three copies via HEG-glycerol branching, chemistry not fully specified) [Compound C-173] ... 2917
4. (5′-TCGAACGTTCGA-3′ (SEQ ID NO: 155)-HEG)3-trebler-HEG-5′-T-3′ (three copies HEG-trebler branched, HEG-T, chemistry not fully specified) [Compound C-175] ... 6779
5. (5′-TCGACGT-3′-HEG)2-glycerol-HEG-5′-TCGACGT-3′ [Compound C-101] ... 52
6. (5′-TAGTCAT-3′-HEG)2-glycerol-HEG-5′-AACCTTC-3′ [Compound M-3, reference compound] ... 52
7. 5′-TCGAACGTTCGA-3′ (SEQ ID NO: 155) (listed as DNA, chemistry not fully specified) [Compound P-17, reference compound] ... 10388

----------
# Test system: human PBMCs
# PROCEDURE SUMMARY: Human PBMC cytokine response assay (IFN-γ and IFN-α in cell-free medium by ELISA), with or without cPLGA
# Type: cell-based
# CONDITION SET: donor 28066; 20 ug/ml, 24 h; + PLGA = premixed with 100 μg/ml cPLGA
A collection of substances and their measured IFN-γ (pg/ml) 28066
READOUT KIND: IFN-γ (pg/ml) 28066 (pg/mL)

1. 5′-TCGTCG-3′-TEG-5′-ACGTTCG-3′-TEG-5′-AGATGAT-3′ [Compound C-18] ... 102
2. 5′-TGCTGC-3′-HEG-5′-AGCTTGC-3′-HEG-5′-AGATGAT-3′ [Compound M-1, reference compound] ... 1
3. 5′-TCGTCGA-3′- C3-5′-ACGTTCG-3′-C3-5′-AGATGAT-3′ [Compound C-9] ... 8
4. 5′-TCGTCG-3′-HME-5′-ACGTTCG-3′-HME-5′-AGATGAT-3′ [Compound C-25] ... 6

----------
# Test system: human PBMCs
# PROCEDURE SUMMARY: Human PBMC cytokine response assay (IFN-γ and IFN-α in cell-free medium by ELISA), with or without cPLGA
# Type: cell-based
# CONDITION SET: Donor 9; 20 μg/ml, 24 h
Strand notation (5' to 3'): a small letter for the sugar, then the base; units joined by * are phosphorothioate-linked, units joined directly phosphodiester-linked; [ ] holds rarer units or linkages, { } end groups; capitals alone tell only the bases. d = 2'-deoxy (DNA)
READOUT KIND: IFN-γ Donor 9

1. 5′-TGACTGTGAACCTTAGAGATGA-3′ (SEQ ID NO: 3) (dT*dG*dA*dC*dT*dG*dT*dG*dA*dA*dC*dC*dT*dT*dA*dG*dA*dG*dA*dT*dG*dA) [Compound P-7, negative control, reference compound] ... 5
2. 5′-TCGTCGA-3′- C3-5′-ACGTTCG-3′-C3-5′-AGATGAT-3′ [Compound C-9] ... 134
3. 5′-TCGTCG-3′ [Compound P-2, reference compound] ... 2
4. 5′-TCGTCGA-3′-HEG-5′-ACGTTCG-3′-HEG-5′-AGATGAT-3′ [Compound C-8] ... 312
